Tested on: MDA-MB-231 cells
Test Protocol: Cell viability assay: MTT test
Format: cell-based
Measurement Setup: Homo sapiens, MDA-MB-231, 72 h treatment, tested at 1, 5, 10, 20, 40 µM, p<0.05 vs untreated, read-out: concentration(s) giving significant reduction in the viability of MDA-MB-231 cells
Entries and their measured minimal effective concentration follow.
Recorded Endpoint: minimal effective concentration

Molecule: CC1(C)CC2(c3ccccc3)OC(=O)C([Si](C)(C)C)=C2O1 (centres unmarked) [Compound A4]
Recorded Endpoint: minimal effective concentration
Meas Value: 10 to 40 µM

Molecule: CC12CCOC1=C([Si](C)(C)C)C(=O)O2 (centres unmarked) [Compound A3]
Recorded Endpoint: minimal effective concentration
Meas Value: ≥ 5 µM

Molecule: CC1(C)CC2(c3ccccc3)OC(=O)C=C2O1 (centres unmarked) [Compound A5]
Recorded Endpoint: minimal effective concentration
Meas Value: 20 to 40 µM

Molecule: CC1(C)CC2(C)OC(=O)C([Si](C)(C)C)=C2O1 (centres unmarked) [Compound A2]
Recorded Endpoint: minimal effective concentration
Meas Value: ≥ 1 µM

Molecule: CC1(C)CC2(C)OC(=O)C(c3ccccc3)=C2O1 (centres unmarked) [Compound A1]
Recorded Endpoint: minimal effective concentration
Meas Value: ≥ 10 µM

* * *

Test system: MCF-10A cells
Test Protocol: Cell viability assay: MTT test, non-tumour cells
Assay type: cell-based, human
Measurement Setup: 72 h treatment, 1-40 µM
Recorded Endpoint: reduction in cell viability of MCF-10A cells (in words)

Molecule: CC1(C)CC2(c3ccccc3)OC(=O)C=C2O1 (centres unmarked) [Compound A5]
Meas Value: not influenced

Molecule: CC12CCOC1=C([Si](C)(C)C)C(=O)O2 (centres unmarked) [Compound A3]
Meas Value: more substantial

Molecule: CC1(C)CC2(c3ccccc3)OC(=O)C([Si](C)(C)C)=C2O1 (centres unmarked) [Compound A4]
Meas Value: not influenced

Molecule: CC1(C)CC2(C)OC(=O)C(c3ccccc3)=C2O1 (centres unmarked) [Compound A1]
Meas Value: more substantial

* * *

Test system: MCF-7 cells
Test Protocol: Cell viability assay: MTT test
Format: cell-based, human
Measurement Setup: Homo sapiens, MCF7, 72 h treatment, tested at 1, 5, 10, 20, 40 µM, p<0.05 vs untreated, read-out: concentration(s) giving significant reduction in the viability of MCF-7 cells
Recorded Endpoint: minimal effective concentration

Molecule: CC1(C)CC2(c3ccccc3)OC(=O)C([Si](C)(C)C)=C2O1 (centres unmarked)
Recorded Endpoint: minimal effective concentration
Meas Value: 1 to 40 µM
//
Molecule: CC12CCOC1=C([Si](C)(C)C)C(=O)O2 (centres unmarked)
Recorded Endpoint: minimal effective concentration
Meas Value: ≥ 10 µM
//
Molecule: CC1(C)CC2(C)OC(=O)C(c3ccccc3)=C2O1 (centres unmarked)
Recorded Endpoint: minimal effective concentration
Meas Value: ≥ 10 µM
//
Molecule: CC1(C)CC2(C)OC(=O)C([Si](C)(C)C)=C2O1 (centres unmarked)
Recorded Endpoint: minimal effective concentration
Meas Value: ≥ 1 µM
//
Molecule: CC1(C)CC2(c3ccccc3)OC(=O)C=C2O1 (centres unmarked)
Recorded Endpoint: minimal effective concentration
Meas Value: 5 to 40 µM

From: patent EP3428169A1
